tested on: P. aeruginosa 5712; test: In vitro antibacterial activity (MIC); type: cell-based; conditions: Pseudomonas aeruginosa; P. aeruginosa 5712; read-out: MIC
Where a name gives a salt, the structure may show the parent alone.
value.kind: MIC

Example compounds with recorded MIC:
Returns the measured MIC for the input compound. Input: CCc1nc(C)cn1CCCC1CCN(C=N[C@@H]2C(=O)N3[C@@H]2SC(C)(C)[C@@H]3C(=O)O)CC1 [G, hydrochloride]
> 128 µg/mL

Returns the measured MIC for the input compound. Input: CC1(C)S[C@@H]2[C@H](N=CN3CCC(CCC4=NCCN4)CC3)C(=O)N2[C@H]1C(=O)O [N, hydrochloride]
64 µg/mL

Returns the measured MIC for the input compound. Input: CC1(C)S[C@@H]2[C@H](N=CN3CCC(CCCn4ccnc4[N+](=O)[O-])CC3)C(=O)N2[C@H]1C(=O)O [K, hydrate]
> 128 µg/mL

Returns the measured MIC for the input compound. Input: CC1(C)S[C@@H]2[C@H](N=CN3CCC(CCCn4ccnc4)CC3)C(=O)N2[C@H]1C(=O)O [C, hydrochloride monohydrate]
> 128 µg/mL

Returns the measured MIC for the input compound. Input: CC1(C)S[C@@H]2[C@H](N=CN3CCC(CCCn4ccnc4N)CC3)C(=O)N2[C@H]1C(=O)O [I, hydrochloride]
> 128 µg/mL

Others:
Returns the measured MIC for the input compound. Input: CC1(C)S[C@@H]2[C@H](N=CN3CCC(Cn4ccnc4N)CC3)C(=O)N2[C@H]1C(=O)O [H, hydrochloride]
128 µg/mL

Returns the measured MIC for the input compound. Input: CC1(C)S[C@@H]2[C@H](N=CN3CCC(Cn4ccnc4)CC3)C(=O)N2[C@H]1C(=O)O [Compound A]
> 128 µg/mL

---

system: E. coli 257; assay: In vitro antibacterial activity (MIC, Mueller-Hinton broth); assay type: cell-based; conditions: Escherichia coli, 257, E. coli 257; read-out: MIC
Counter-ions that a name gives are not always drawn.
Hi! Just check whether MIC is below 0.06 µg/mL. Below gives met, equal or above gives not met.

Example entries and their recorded answers appear below.
Input CN(C)C=Nc1nccn1CCCC1CCN(C=N[C@@H]2C(=O)N3[C@@H]2SC(C)(C)[C@@H]3C(=O)O)CC1 [S, hydrate] ; condition: MIC strictly below 0.06 µg/mL. Does it hold?
not met

Input CC1(C)S[C@@H]2[C@H](N=CN3CCC(CC4=NCCN4)CC3)C(=O)N2[C@H]1C(=O)O [M, hydrochloride] ; condition: MIC strictly below 0.06 µg/mL. Does it hold?
not met

Input CC1(C)S[C@@H]2[C@H](N=CN3CCC(Cn4ccnc4CN)CC3)C(=O)N2[C@H]1C(=O)O [J, hydrochloride] ; condition: MIC strictly below 0.06 µg/mL. Does it hold?
not met

Input CC1(C)S[C@@H]2[C@H](N=CN3CCC(CCCn4ccnc4N)CC3)C(=O)N2[C@H]1C(=O)O [I, hydrochloride] ; condition: MIC strictly below 0.06 µg/mL. Does it hold?
met

Input CC1(C)S[C@@H]2[C@H](N=CN3CCC(Cc4ncc[nH]4)CC3)C(=O)N2[C@H]1C(=O)O [Q, hydrochloride] ; condition: MIC strictly below 0.06 µg/mL. Does it hold?
not met

Others:
Input CC1(C)S[C@@H]2[C@H](N=CN3CCC(CCC4=NCCN4)CC3)C(=O)N2[C@H]1C(=O)O [N, hydrochloride] ; condition: MIC strictly below 0.06 µg/mL. Does it hold?
met

Input CC1(C)S[C@@H]2[C@H](N=CN3CCC(C4=NCCN4)CC3)C(=O)N2[C@H]1C(=O)O [L, hydrochloride] ; condition: MIC strictly below 0.06 µg/mL. Does it hold?
not met

---

test system: P. aeruginosa 8710; experiment: In vitro antibacterial activity (MIC); type: cell-based; settings: Pseudomonas aeruginosa; P. aeruginosa 8710; read-out: MIC
Structures can show the parent of a compound that is named as a salt.
This section presents compounds with their documented MIC values.

Example compounds with recorded MIC:
Returns the measured MIC for the input compound. Input: "CC1(C)S[C@@H]2[C@H](N=CN3CCC(Cn4ccnc4)CC3)C(=O)N2[C@H]1C(=O)O"
> 128 µg/mL

Returns the measured MIC for the input compound. Input: CC1(C)S[C@@H]2[C@H](N=CN3CCC(CCn4ccnc4)CC3)C(=O)N2[C@H]1C(=O)O [B, hydrate hydrochloride]
> 128 µg/mL

Returns the measured MIC for the input compound. Input: CCc1nc(C)cn1CCCC1CCN(C=N[C@@H]2C(=O)N3[C@@H]2SC(C)(C)[C@@H]3C(=O)O)CC1 [G, hydrochloride]
> 128 µg/mL

Attention now shifts to the item below.
Returns the measured MIC for the input compound. Input: CC1(C)S[C@@H]2[C@H](N=CN3CCC(CCCn4ccnc4N)CC3)C(=O)N2[C@H]1C(=O)O [I, hydrochloride]
128 µg/mL

---

system: S. marcescens S4; assay: In vitro antibacterial activity (MIC); format: cell-based; details: Serratia marcescens, S4, S. marcescens S4; read-out: MIC
Structures can show the parent of a compound that is named as a salt.
value.kind: MIC (mg/L)
The response must be a number in mg/L with no trailing unit.

Returns the measured MIC for the input molecule. Input: CC1(C)S[C@@H]2[C@H](N=CN3CCC(CCCn4ccnc4)CC3)C(=O)N2[C@H]1C(=O)O [C, hydrochloride monohydrate]
32

Returns the measured MIC for the input molecule. Input: CC1(C)S[C@@H]2[C@H](N=CN3CCC(Cc4ncc[nH]4)CC3)C(=O)N2[C@H]1C(=O)O [Q, hydrochloride]
0.5

Returns the measured MIC for the input molecule. Input: CC1(C)S[C@@H]2[C@H](N=CN3CCC(CCC4=NCCN4)CC3)C(=O)N2[C@H]1C(=O)O [N, hydrochloride]
0.25

Others:
Returns the measured MIC for the input molecule. Input: CC1(C)S[C@@H]2[C@H](N=CN3CCC(C4=NCCN4)CC3)C(=O)N2[C@H]1C(=O)O [L, hydrochloride]
2

Returns the measured MIC for the input molecule. Input: CC1(C)S[C@@H]2[C@H](N=CN3CCC(c4ncc[nH]4)CC3)C(=O)N2[C@H]1C(=O)O [O, hydrochloride trihydrate]
2

---

system: K. pneumoniae 35; assay: In vitro antibacterial activity (MIC); assay type: cell-based; conditions: Klebsiella pneumoniae; K. pneumoniae 35; read-out: MIC
Structures can show the parent of a compound that is named as a salt.
Hi! Just check whether MIC is below 0.5 µg/mL. Below gives Satisfied, equal or above gives Not satisfied.

Example entries and their recorded answers appear below.
Input CC1(C)S[C@@H]2[C@H](N=CN3CCC(CCn4ccnc4)CC3)C(=O)N2[C@H]1C(=O)O [B, hydrate hydrochloride] ; condition: MIC strictly below 0.5 µg/mL. Does it hold?
Not satisfied

Input CC1(C)S[C@@H]2[C@H](N=CN3CCC(CC4=NCCN4)CC3)C(=O)N2[C@H]1C(=O)O [M, hydrochloride] ; condition: MIC strictly below 0.5 µg/mL. Does it hold?
Not satisfied

Input CC1(C)S[C@@H]2[C@H](N=CN3CCC(CCC4=NCCN4)CC3)C(=O)N2[C@H]1C(=O)O [N, hydrochloride] ; condition: MIC strictly below 0.5 µg/mL. Does it hold?
Satisfied

Others:
Input Cc1nccn1CCCC1CCN(C=N[C@@H]2C(=O)N3[C@@H]2SC(C)(C)[C@@H]3C(=O)O)CC1 [F, hydrate] ; condition: MIC strictly below 0.5 µg/mL. Does it hold?
Satisfied

Input Cc1nc(C)n(CCCC2CCN(C=N[C@@H]3C(=O)N4[C@@H]3SC(C)(C)[C@@H]4C(=O)O)CC2)c1C [E, hydrate hydrochloride] ; condition: MIC strictly below 0.5 µg/mL. Does it hold?
Satisfied

Input CC1(C)S[C@@H]2[C@H](N=CN3CCC(c4ncc[nH]4)CC3)C(=O)N2[C@H]1C(=O)O [O, hydrochloride trihydrate] ; condition: MIC strictly below 0.5 µg/mL. Does it hold?
Not satisfied

Input "CC1(C)S[C@@H]2[C@H](N=CN3CCC(Cn4ccnc4)CC3)C(=O)N2[C@H]1C(=O)O" ; condition: MIC strictly below 0.5 µg/mL. Does it hold?
Satisfied

Input CC1(C)S[C@@H]2[C@H](N=CN3CCC(CCCn4ccnc4N)CC3)C(=O)N2[C@H]1C(=O)O [I, hydrochloride] ; condition: MIC strictly below 0.5 µg/mL. Does it hold?
Satisfied

Input CC1(C)S[C@@H]2[C@H](N=CN3CCC(Cn4ccnc4N)CC3)C(=O)N2[C@H]1C(=O)O [H, hydrochloride] ; condition: MIC strictly below 0.5 µg/mL. Does it hold?
Satisfied

Input CC1(C)S[C@@H]2[C@H](N=CN3CCC(C4=NCCN4)CC3)C(=O)N2[C@H]1C(=O)O [L, hydrochloride] ; condition: MIC strictly below 0.5 µg/mL. Does it hold?
Not satisfied

Input CC1(C)S[C@@H]2[C@H](N=CN3CCC(CCCn4ccnc4CO)CC3)C(=O)N2[C@H]1C(=O)O [R, hydrate] ; condition: MIC strictly below 0.5 µg/mL. Does it hold?
Satisfied

Input CC1(C)S[C@@H]2[C@H](N=CN3CCC(CCCn4ccnc4)CC3)C(=O)N2[C@H]1C(=O)O [C, hydrochloride monohydrate] ; condition: MIC strictly below 0.5 µg/mL. Does it hold?
Not satisfied

Input CC1(C)S[C@@H]2[C@H](N=CN3CCC(Cc4ncc[nH]4)CC3)C(=O)N2[C@H]1C(=O)O [Q, hydrochloride] ; condition: MIC strictly below 0.5 µg/mL. Does it hold?
Satisfied

Input CC1(C)S[C@@H]2[C@H](/N=C/N3CCCCCC3)C(=O)N2[C@H]1C(=O)O [Amdinocillin, amdinocillin, reference compound] ; condition: MIC strictly below 0.5 µg/mL. Does it hold?
Satisfied

Recorded values, source patent US4605744A.
